Listing: TGI of selected compounds
System: SR leukemia
ASSAY INFO: NCI tumour cell line growth inhibition, 48 h

Recorded TGI, per entry:
>>> test_result("CC(/C=N/N=C(N)N)=N\\N=C(N)N")
"333 µM"
>>> test_result("O=[N+]([O-])C(C=C(n1nnc2ccccc21)n1nnc2ccccc21)=C(n1nnc2ccccc21)n1nnc2ccccc21")
"66.6 µM"
>>> test_result("O=c1[nH]nc(-c2ccccc2)n1-n1cnnc1")
"> 100 µM"
>>> test_result("CC(C)(C)Sc1nnc(SC(C)(C)C)c2c(=O)[nH]nc(SC(C)(C)C)c12")
"19.1 µM"
>>> test_result("C/C(=N/O)c1ccc(Nc2cc(-n3ccnc3)c3ccccc3n2)cc1")
"> 100 µM"

For the compound COC(=O)c1cc(/C=C\c2cc(OC)ccc2OC)ccc1OC , give its measured TGI value.
> 100 µM

For the compound COc1ccc2c([nH]c3c(O)c(-c4c(C)cc5c([nH]c6c(CC=C(C)C)c(OC)ccc65)c4O)c(C)cc32)c1CC=C(C)C , give its measured TGI value.
> 100 µM

For the compound CSCCCNC(=O)[C@H](CSC)NC(=O)c1csc(CCNC(=O)[C@@H](NSc2ccccc2[N+](=O)[O-])C(C)O)n1 (stereo partly specified) , give its measured TGI value.
> 100 µM

For the compound CN1CCN(c2ccc3nc(-c4ccc(OCCCCN5CCN(CCCCN6C(=O)c7cccc8cccc(c78)C6=O)CC5)cc4)[nH]c3c2)CC1 , give its measured TGI value.
> 100 µM

For the compound O=[N+]([O-])/C(C(Cl)=C(Cl)Cl)=C(/Nc1ccccc1)Sc1ccccc1 , give its measured TGI value.
43 µM

For the compound NC(=O)c1ccc(N(C(N)=O)c2c(F)cccc2F)nc1-c1ccc(F)cc1F , give its measured TGI value.
> 100 µM

For the compound Oc1ccc(Cl)cc1/C=N\NC(=S)N/N=C/c1cc(Cl)ccc1O , give its measured TGI value.
40.9 µM

For the compound O=S(=O)(O)SCCNCCCCCC1CCCCC1 , give its measured TGI value.
> 33.3 µM

For the compound Cc1ccc(/C=C2\N=C(N3CCCC(CO)C3)NC2=O)cc1 (stereo unspecified) , give its measured TGI value.
> 100 µM

For the compound COC(=O)C(NC(=O)OC(C)(C)C)P(=O)(OC)OC (stereo unspecified) , give its measured TGI value.
> 100 µM

For the compound O=C1N(c2ccccc2)C(=S)/C(=C/c2ccc(Cl)cc2)N1c1ccc(Cl)cc1 , give its measured TGI value.
15.5 µM
